Tested on: Streptococcus pyogenes
Test: Antibacterial activity against erythromycin-susceptible Streptococcus pyogenes clinical isolate by broth microdilution method
Format: functional
METRIC_NAME: MIC (µg/mL)
Provide only the numeric value, understood in µg/mL.

In one line, give reported MIC of the entry "CC[C@H]1OC(=O)[C@H](C)[C@@H](OC(=O)Nc2ccccc2C)[C@H](C)[C@@H](O[C@@H]2O[C@H](C)C[C@H](N(C)C)[C@H]2O)[C@](C)(O)C[C@@H](C)CN(C)[C@H](C)[C@H]2OC(=O)O[C@@]21C" .
0.5

* * *

Reported MIC by item:
System: Streptococcus pyogenes
Experiment: Antibacterial activity against erythromycin-susceptible Streptococcus pyogenes clinical isolate by broth microdilution method
Type: functional
Provide a numeric answer, followed by its unit.

Solved entries:
Provide measured MIC value, entry: "CC[C@H]1OC(=O)[C@H](C)[C@@H](OC(=O)Nc2cccc(C)c2)[C@H](C)[C@@H](O[C@@H]2O[C@H](C)C[C@H](N(C)C)[C@H]2O)[C@](C)(O)C[C@@H](C)CN(C)[C@H](C)[C@@H](OC(=O)NCc2ccc(OC)cc2)[C@]1(C)O"
1 µg/mL

Give me measured MIC, please, for this molecule: "CC[C@H]1OC(=O)[C@H](C)[C@@H](O[C@H]2C[C@@](C)(OC)[C@@H](O)[C@H](C)O2)[C@H](C)[C@@H](O[C@@H]2O[C@H](C)C[C@H](N(C)C)[C@H]2O)[C@](C)(OC)C[C@@H](C)C(=O)[C@H](C)[C@@H](O)[C@]1(C)O"
0.03 µg/mL

Return value of MIC for input "CC[C@H]1OC(=O)[C@H](C)[C@@H](OC(=O)Nc2ccccc2)[C@H](C)[C@@H](O[C@@H]2O[C@H](C)C[C@H](N(C)C)[C@H]2O)[C@](C)(O)C[C@@H](C)CN(C)[C@H](C)[C@H]2OC(=O)O[C@@]21C" , no commentary.
0.25 µg/mL

Identify measured MIC associated with "CCCCCNC(=O)O[C@H]1[C@H](C)[C@@H](O[C@@H]2O[C@H](C)C[C@H](N(C)C)[C@H]2OC(C)=O)[C@](C)(O)C[C@@H](C)CN(C)[C@H](C)[C@H]2OC(=O)O[C@]2(C)[C@@H](CC)OC(=O)[C@@H]1C"
4 µg/mL

Supply recorded MIC for "CC[C@H]1OC(=O)[C@H](C)[C@@H](OC(=O)Nc2ccccc2C)[C@H](C)[C@@H](O[C@@H]2O[C@H](C)C[C@H](N(C)C)[C@H]2O)[C@](C)(O)C[C@@H](C)CN(C)[C@H](C)[C@@H](OC(=O)NCc2ccccc2)[C@]1(C)O" here.
0.03 µg/mL

Let me know recorded MIC for "CC[C@H]1OC(=O)[C@H](C)[C@@H](O)[C@H](C)[C@@H](O[C@@H]2O[C@H](C)C[C@H](N(C)C)[C@H]2OC(=O)Nc2ccccc2)[C@](C)(O)C[C@@H](C)CN(C)[C@H](C)[C@H]2OC(=O)O[C@@]21C" , thanks.
0.5 µg/mL

***
Note MIC for the molecule shown: "CC[C@H]1OC(=O)[C@H](C)[C@@H](OC(=O)Nc2ccccc2)[C@H](C)[C@@H](O[C@@H]2O[C@H](C)C[C@H](N(C)C)[C@H]2O)[C@](C)(O)C[C@@H](C)CN(C)[C@H](C)[C@@H](OC(=O)NCc2ccc(C)cc2)[C@]1(C)O"
4 µg/mL

Respond only with MIC recorded for "CC[C@H]1OC(=O)[C@H](C)[C@@H](OC(=O)Nc2cccc(Cl)c2)[C@H](C)[C@@H](O[C@@H]2O[C@H](C)C[C@H](N(C)C)[C@H]2O)[C@](C)(O)C[C@@H](C)CN(C)[C@H](C)[C@H]2OC(=O)O[C@@]21C"
0.25 µg/mL

Answer with the recorded MIC for the molecule listed here: "CC[C@H]1OC(=O)[C@H](C)[C@@H](OC(=O)Nc2ccccc2F)[C@H](C)[C@@H](O[C@@H]2O[C@H](C)C[C@H](N(C)C)[C@H]2OC(C)=O)[C@](C)(O)C[C@@H](C)CN(C)[C@H](C)[C@H]2OC(=O)O[C@@]21C"
4 µg/mL
